Data provenance: ChEMBL document CHEMBL6096634

Target: 20S proteasome (Homo sapiens) (UniProt P49721+P20618+P28074+P28062+P28065+P28072+P25786+P25787+P25788+P25789+P28066+P60900+O14818+Q8TAA3+P40306+A5LHX3+P49720+P28070+Q99436)
Experiment: Activation of human erythrocyte-derived 20s proteosome using CT-L as peptide substrate by fluorescence based analysis
Format: cell-based
Conditions: filed as activator
Exercise: for every item that follows, state its recorded EC200.
The answer should read as a number with its unit following.

COc1ccc(NC(=O)c2cc(O)c3c(c2)C(=O)c2cccc(O)c2C3=O)cc1 :: 0.32 µM

Quick request: EC200 for each listed item, please.
1. COc1ccc(Nc2cc(NCC(C)C)c3noc4c3c2C(=O)c2ccccc2-4)cc1
2. CN1CCN(c2ccc(NC(=O)c3cc(O)c4c(c3)C(=O)c3cccc(O)c3C4=O)cc2)CC1
3. COc1ccc(Nc2cc(NCC(C)C)c(N)c3c2C(=O)c2ccccc2C3=O)cc1

output:
1: 0.7 µM; 2: 3.85 µM; 3: 0.61 µM

input: Fill in EC200 for record `O=C1c2cccc(O)c2C(=O)c2c(O)cc(C(=O)N3CCN(c4nccs4)CC3)cc21`
output: 1.18 µM
